The measured values listed here are drawn from patent US6255517A.

Item-by-item account of pIC50
- Tested on: A549
- assayNotes: SRB cytotoxicity (anti-tumor activity) in vitro, A549
- Format: cell-based
- experimentalParameters: Homo sapiens; A549 non small cell lung carcinoma; SRB, 48 hours; read-out: ED50 (the source's name)
pIC50: −log10 of the molar value.
readoutLabel: pIC50

>  <compound>
C=C(CO)c1ccc(C)cc1OS(=O)(=O)c1ccc(C)cc1

>  <targetDesc>
A549

>  <qualifyingSign>
=

>  <assayValue>
4.88

$$$$
>  <compound>
COc1ccc(C(=O)OCC(O)(CO)c2ccc(C)cc2OC(C)=O)cc1 (centres unmarked)

>  <targetDesc>
A549

>  <qualifyingSign>
<

>  <assayValue>
4.00

$$$$
>  <compound>
CC(=O)Oc1cc(C)ccc1C(O)(CO)COC(=O)Cc1ccc([N+](=O)[O-])cc1 (centres unmarked)

>  <targetDesc>
A549

>  <qualifyingSign>
<

>  <assayValue>
4.00

$$$$
>  <compound>
Cc1ccc(C(O)(CO)COC(=O)Cc2ccc(F)cc2)c(OC(=O)C(C)C)c1 (centres unmarked)

>  <targetDesc>
A549

>  <qualifyingSign>
<

>  <assayValue>
4.00

$$$$
>  <compound>
Cc1ccc(C2(COC(=O)Cc3ccc([N+](=O)[O-])cc3)CO2)c(OC(=O)C(C)C)c1 (centres unmarked)

>  <targetDesc>
A549

>  <qualifyingSign>
=

>  <assayValue>
4.49

$$$$
>  <compound>
C=C(CO)c1ccc(C)cc1OCc1ccc(C)cc1

>  <targetDesc>
A549

>  <qualifyingSign>
=

>  <assayValue>
4.96

$$$$
>  <compound>
Cc1ccc(C2(COC(=O)Cc3ccc(F)cc3)CO2)c(OC(=O)C(C)C)c1 (centres unmarked)

>  <targetDesc>
A549

>  <qualifyingSign>
=

>  <assayValue>
4.97

$$$$
>  <compound>
CC(=O)OCC1(c2ccc(C)cc2OC(C)=O)CO1 (centres unmarked) [Compound 14-8, 10-Acetoxy-8,9-epoxythymol acetate]

>  <targetDesc>
A549

>  <qualifyingSign>
=

>  <assayValue>
4.29

$$$$
>  <compound>
C=C(CO)c1ccc(C)cc1OCc1ccc(OC)cc1

>  <targetDesc>
A549

>  <qualifyingSign>
=

>  <assayValue>
4.97

$$$$
>  <compound>
CC(=O)Oc1ccccc1C1(COC(=O)c2ccccc2)CO1 (centres unmarked)

>  <targetDesc>
A549

>  <qualifyingSign>
=

>  <assayValue>
4.36

$$$$
>  <compound>
CC(=O)Oc1ccc(C2(COC(=O)Cc3ccc(F)cc3)CO2)c(OC(C)=O)c1 (centres unmarked)

>  <targetDesc>
A549

>  <qualifyingSign>
=

>  <assayValue>
4.44

$$$$
>  <compound>
C=C(COS(=O)(=O)c1ccc(OC)cc1)c1ccc(C)cc1OC(C)=O

>  <targetDesc>
A549

>  <qualifyingSign>
=

>  <assayValue>
4.55

$$$$
>  <compound>
CC(=O)Oc1ccccc1C1(COC(=O)Cc2ccc([N+](=O)[O-])cc2)CO1 (centres unmarked)

>  <targetDesc>
A549

>  <qualifyingSign>
=

>  <assayValue>
4.35

$$$$
>  <compound>
CC(=O)Oc1cc(C)ccc1C1(COC(=O)Cc2ccc([N+](=O)[O-])cc2)CO1 (centres unmarked)

>  <targetDesc>
A549

>  <qualifyingSign>
=

>  <assayValue>
4.42

$$$$
>  <compound>
CC(=O)Oc1cc(C)ccc1C(O)(CO)COC(=O)c1ccccc1 (centres unmarked) [Compound 15-5, 10-Benzoxy-8,9-dihydroxythymol acetate]

>  <targetDesc>
A549

>  <qualifyingSign>
<

>  <assayValue>
4.00

$$$$
>  <compound>
COc1ccc(CC(=O)OCC(O)(CO)c2ccc(C)cc2OC(C)=O)cc1 (centres unmarked)

>  <targetDesc>
A549

>  <qualifyingSign>
<

>  <assayValue>
4.00

$$$$
>  <compound>
Cc1ccc(C2(COC(=O)C(C)C)CO2)c(OC(=O)C(C)C)c1 (centres unmarked)

>  <targetDesc>
A549

>  <qualifyingSign>
=

>  <assayValue>
4.39

$$$$
